Source listed as the supplement of paper PMC8837787.

test system: Saccharomyces cerevisiae ABC16-Green Monster; conditions: 18 h; 30 °C; YPD
measuredMetric: IC50 growth inhibition

Examples from the recorded data:
Cc1cc(F)c(C(=O)Nc2cccc(-c3nncn3C(C)C)n2)cc1-n1cnc(C2CC2)c1 [GS-4997]	> 75 µM
CC(C)Oc1cc(Nc2nc(N[C@@H](C)c3ccc(F)cc3)c(C#N)cc2F)[nH]n1 [AZD-6918]	> 75 µM
Cc1[nH]c2ccccc2c(=O)c1CC=C(Cl)Cl [GNF-Pf-4439]	> 150 µM

Please look up its IC50 growth inhibition: O=CN(O)CCCP(=O)(O)O [Fosmidomycin]
> 75 µM

Also check O=C(c1cccs1)N1CCN(c2ccc([N+](=O)[O-])c(NC3CC3)c2)CC1 [GNF-Pf-3455]
> 150 µM

====

system: Saccharomyces cerevisiae ABC16-Green Monster; details: 18 h; 30 °C; YPD
measuredMetric: IC50 growth inhibition

Examples from the recorded data:
CC1C=CC=CCCC=CC=CC=CC=CC(OC2OC(C)C(O)C(N)C2O)CC2OC(O)(CC(O)C(O)CCC(O)CC(O)CC(O)CC(=O)OC(C)C(C)C1O)CC(O)C2C(=O)O (stereo not drawn)	> 75 µM
CC[C@H]1OC(=O)[C@H](C)[C@@H](O[C@H]2C[C@@](C)(OC)[C@@H](O)[C@H](C)O2)[C@H](C)[C@@H](O[C@@H]2O[C@H](C)C[C@H](N(C)C)[C@H]2O)[C@](C)(O)C[C@@H](C)C(=O)[C@H](C)[C@@H](O)[C@]1(C)O	> 75 µM

Please examine the following record next.
Form: Entry = O=C(CC1NCCCC1O)Cn1cnc2ccccc2c1=O (stereo not drawn) | System = Saccharomyces cerevisiae ABC16-Green Monster | IC50 growth inhibition = ____
> 75 µM

====

Entries and their measured IC50 growth inhibition follow.
test system: Saccharomyces cerevisiae ABC16-Green Monster; details: 18 h; 30 °C; YPD

Examples from the recorded data:
CC(=O)NCC1CN(c2ccc(N3CCSCC3)c(F)c2)C(=O)O1 (stereo not drawn)	> 75 µM
COC(=O)C1=C(C)NC(C)=C(C(=O)OC(C)C)C1c1cccc2nonc12 (stereo not drawn)	> 150 µM

Please examine the following record next.
Please look up its IC50 growth inhibition: COC1C=COC2(C)Oc3c(C)c(O)c4c(c3C2=O)C(=O)C(=CNN2CCN(C)CC2)C(=C4O)NC(=O)C(C)=CC=CC(C)C(O)C(C)C(O)C(C)C(OC(C)=O)C1C (stereo not drawn)
> 75 µM

====

system: Saccharomyces cerevisiae ABC16-Green Monster; details: 18 h; 30 °C; YPD
measuredMetric: IC50 growth inhibition

COc1ccc(C2Sc3ccccc3N=C3C2=C(O)c2ccccc23)cc1 (configuration not stated) [GNF-Pf-5129]	3.97 µM
OCCc1ccc(Nc2nccc(-c3nnc4ccccn34)n2)cc1	43.9 µM
CSc1nc2cc(Oc3cccc(Cl)c3Cl)c(Cl)cc2[nH]1 [Triclabendazole]	6.29 µM
Cc1cc(Nc2ccc(OCc3ccccc3)cc2)nc2cc(O)ccc12	2.38 µM
N.N.O=C([O-])C1(C(=O)[O-])CCC1.[Pt+2] [Carboplatin]	> 75 µM

Please look up its IC50 growth inhibition: COc1ccc(Nc2nc(NCc3ccccc3)c3ccccc3n2)cc1
7.72 µM

Also check CS(=O)(=O)Nc1nc(-c2ccccn2)nc2scc(-c3ccccc3)c12
13.8 µM

====

Entries and their measured IC50 growth inhibition follow.
system: Saccharomyces cerevisiae ABC16-Green Monster; settings: 18 h; 30 °C; YPD
# value in µM; strip the unit string

O=C1c2ccccc2C2=Nc3ccccc3SC(c3ccccc3F)C12 (centres undefined)	5.87
C(#Cc1ccc(-c2cc[nH]n2)s1)c1ccccc1	18.9
CC(C)(C)c1ccc(NC(=O)c2ccc[nH]c2=S)cc1	25.4
CC(C)(C)c1ccc(C(=N)NOC(=O)c2sccc2Cl)cc1	8.34
Nc1ccc(C(=O)Nc2ccc(-c3nc4ccccc4o3)cc2)cc1	19

Please look up its IC50 growth inhibition: CCOC(=O)c1c(NC(=O)CNCc2ccccn2)sc(CC)c1C
47.8

Also check CC(C)=CCC/C(C)=C\CNCCNC1C2CC3CC(C2)CC1C3 (centres undefined)
18.2

Also check CCOC(=O)c1c(NC(=O)c2c(F)c(F)c(F)c(F)c2F)sc(C(N)=O)c1C
47.8

Also check O=C([C@@H](c1ccc(Cl)cc1)c1cccnc1)N1CCN(c2ccc(C(F)(F)F)cc2)CC1
50

====

Entries and their measured IC50 growth inhibition follow.
system: Saccharomyces cerevisiae ABC16-Green Monster; settings: 18 h; 30 °C; YPD
Number plus unit, in that order.

Cc1cc(C(C)(C)CC(C)(C)C)ccc1OCCOCC[N+](C)(C)Cc1ccccc1	3740 nM

Please look up its IC50 growth inhibition: CCc1ccc(Nc2cc(C)c3ccc(O)cc3n2)cc1
2090 nM

Also check COC1CC2CCC(C)C(O)(O2)C(=O)C(=O)N2CCCCC2C(=O)OC(C(C)CC2CCC(O)C(OC)C2)CC(=O)C(C)C=C(C)C(O)C(OC)C(=O)C(C)CC(C)C=CC=CC=C1C (stereo not drawn)
727 nM

====

test system: Saccharomyces cerevisiae ABC16-Green Monster; settings: 18 h; 30 °C; YPD
Entries and their measured IC50 growth inhibition follow.
# value in µM; strip the unit string

O=C1N=c2ccccc2=C1NNC(=S)N1CCOCC1	16.4
CCS(=O)(=O)N1Cc2ccccc2CC1C(=O)Nc1nc2ccc(F)cc2s1 (stereo unspecified)	74
COc1ccc(C2CC(=O)C3=C(C2)NC(C)=C(C(=O)OC2CCCC2)C3c2ccc([N+](=O)[O-])cc2)cc1OC (stereo unspecified)	9.8
c1ccc(CSc2scnc2[P+](c2ccccc2)(c2ccccc2)c2ccccc2)cc1	4.06
c1ccc(CNc2nc(Nc3ccccc3)nc3ccccc23)cc1	8.62
CC(C)CC(NC(=O)C(Cc1ccccc1)NC(=O)c1cnccn1)B(O)O (stereo unspecified)	46.2

Form: Entry = COc1cc(C)c2c(Oc3cccc(C(F)(F)F)c3)c(OC)cc(NC(C)CCCN)c2n1 (stereo unspecified) | System = Saccharomyces cerevisiae ABC16-Green Monster | IC50 growth inhibition = ____
101

====

Entries and their measured IC50 growth inhibition follow.
tested on: Saccharomyces cerevisiae ABC16-Green Monster; conditions: 18 h; 30 °C; YPD
Counter-ions that a name gives are not always drawn.

Examples from the recorded data:
O=C(CCCCCCC(=O)Nc1ccccc1)NO	> 75 µM
O=C1C2=C(Nc3ccccc3SC2c2ccc(OCc3ccccc3)cc2)c2ccccc21 (stereo not drawn)	> 150 µM

Please examine the following record next.
Please look up its IC50 growth inhibition: CCCc1nn(C)c2c(=O)nc(-c3cc(S(=O)(=O)N4CCN(C)CC4)ccc3OCC)[nH]c12 [Sildenafil citrate]
> 75 µM

====

test system: Saccharomyces cerevisiae ABC16-Green Monster; details: 18 h; 30 °C; YPD
Please note: IC50 growth inhibition exactly at 20 µM is false. Only values below 20 µM get true.

The examples below pair each entry with its known result.
COC=C(C(=O)OC)c1ccccc1Oc1cc(Oc2ccccc2C#N)ncn1 [Azoxystrobin]	false
Brc1cncc(-c2cc(NCCCn3ccnc3)nc(-c3ccccc3)n2)c1	false
O=C1C=CC(=O)N1c1ccc(C2CCCCC2)cc1	true
CCC(C)CC(C)CCCCCCCCC(=O)NC1CC(O)C(NCCN)NC(=O)C2C(O)CCN2C(=O)C(C(O)CCN)NC(=O)C(C(O)C(O)c2ccc(O)cc2)NC(=O)C2CC(O)CN2C(=O)C(C(C)O)NC1=O (stereo not given) [Caspofungin]	true
CCOc1ccc(Oc2ccc(S(=O)(=O)NC(C)c3ccncc3)cc2)cc1 (stereo not given)	false
C[C@H](c1ccc2c(c1)CCCC2)N(C)c1ncc2c(N)nc(N)nc2n1	false

Given CC(CN1c2ccccc2Sc2ccccc21)N(C)C (stereo not given) [Promethazine] , is recorded IC50 growth inhibition strictly lower than 20 µM?
false

====

test system: Saccharomyces cerevisiae ABC16-Green Monster; settings: 18 h; 30 °C; YPD
Entries and their measured IC50 growth inhibition follow.

Examples from the recorded data:
C=CC1(C)CC(=O)C2(O)C(C)(O1)C(OC(C)=O)C(O)C1C(C)(C)CCC(O)C12C (stereo not given) [Forskolin]	> 75 µM
CCCC(CCC)C(=O)O [Valproic acid]	> 75 µM
O=C(Nc1cc(Oc2cc(F)c(NC(=O)C3(C(=O)Nc4ccc(F)cc4)CC3)cc2F)ccn1)C1CC1 [Altiratinib]	> 75 µM

Form: Entry = COc1cc(CNC(=O)CCCCC=CC(C)C)ccc1O [Capsaicin] | System = Saccharomyces cerevisiae ABC16-Green Monster | IC50 growth inhibition = ____
> 150 µM

Also check Nc1nc(F)nc2c1ncn2C1OC(CO)C(O)C1O (stereo not given) [Fludarabine]
> 75 µM

====

system: Saccharomyces cerevisiae ABC16-Green Monster; settings: 18 h; 30 °C; YPD
Entries and their measured log10 IC50 growth inhibition follow.
Recorded IC50 growth inhibition (log10, µM)

Form: Entry = CCC(NC(=O)c1ccccc1NC(=O)c1ccc(C)cc1)C(=O)OC (centres undefined) | System = Saccharomyces cerevisiae ABC16-Green Monster | log10 IC50 growth inhibition = ____
1.50
